biological target: T1, HER2ECDHis (human, UniProt P04626 23-653, biotinylated in the cross-block ELISA (sites not given)); assay: ELISA; competitor 132
T1 construct: range 1-653; expressed in HEK-293F; also called soluble HER2; biotinylated HER2ECDHis
Quantity name: % binding vs no competitor (%)

Binder | Quantity name | Test value
HuMab 132 (antibody, V domains shown) VH: QVQLVQSGAEVKKPGASVKVSCKASGYTFTSYGISWVRQAPGQGLEWMGWISAYNGNSNYVQKFQGRVTMTTDTTTSTAYMELRSLTSDDTAVYYCAREYSYDSGTYFYYGMDVWGQGTTVTVSS VL: EIVLTQSPATLSLSPGERATLSCRASQSVSSYLAWYQQKPGQAPRLLIYDASNRATGIPARFSGSGSGTDFTLTISSLEPEDFAVYYCQQRSNWPMYTFGQGTKLEIK | % binding vs no competitor | 32
